# assayed-system: T1, Source 1 VEGF-D, mature dimeric recombinant human VEGF-D (CSIRO) (human, UniProt O43915 89-205)
# T1 construct: Whole entry named; also called Source 1 VEGF-D dimer; VEGF-D dimer
# T1 sequence: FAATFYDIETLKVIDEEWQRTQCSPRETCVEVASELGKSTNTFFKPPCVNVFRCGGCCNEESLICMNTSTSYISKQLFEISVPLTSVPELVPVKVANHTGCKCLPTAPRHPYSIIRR
# test: SPR Protocol B: VEGF-D dimer amine-coupled, IgG as analyte

{"binder": "humanized IgG antibody derived from clone HH41 (antibody, V domains shown, IgG; also called HH41#1; HH41#2) VH: QVQLVQSGAEVKQPGASVKVSCKASGYTFTGYNMYWVRQAPGQGLEWMGYIDPYNGDTTYNQKFKGRVTMTTDTSTSTAYMKLRSLRSDDTAVYYCARTSYYGGMDYWGRGTLVTVAS VL: DIVMTQTPLSSPVTLGQPASISCRSSQSLVHGNGNTYLHWLQQRPGQPPRLLIYKVSNRFSGVPDRFSGSGAGTDFTLKISRVEAEDVGVYYCSQSTHVPRTFGQGTKLEIKR", "Kd [nM]": 0.36}
{"binder": "humanized IgG antibody derived from clone DI26 (antibody, V domains shown, IgG) VH: QVQLVQSGAKVKQPGASVKASCKASGYTFTGYNMYWVRQAPGQGLEWMGYIDPYSGDTTYNQKFKGRVTMTTDTSTSTAYMELRSLRSDDTAVYYCARTSYYGGMDYWGRGTLVTVAS VL: DIVMTQTPLSSPVTLGQPASISCRSSQSLVHSNGNTYLHWLQQRPGQPPRLLIYKVSNRFSGVPDRFSGSGAGTDFTLKISRVEAEDVGVYYCSQSTHVPRTFGQGTKLEIKR", "Kd [nM]": 0.88}
{"binder": "humanized IgG antibody derived from clone HW78 (antibody, V domains shown, IgG) VH: QVQLVQSGAEVKQPGASVKVSCKARGYTFTGYNMYWVRQAPGQGLEWMGYIDPYNGDTTYNQKFKGRVTMTTDTSTGTAYMKLRSLRSDDTAVYYCARTSYYGGMDYWGRGTLVTVAS VL: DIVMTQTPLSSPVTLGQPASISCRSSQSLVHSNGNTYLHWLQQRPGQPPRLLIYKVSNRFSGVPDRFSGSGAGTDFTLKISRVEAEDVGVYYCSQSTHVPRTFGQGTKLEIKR", "Kd [nM]": 0.32}
{"binder": "humanized IgG antibody derived from clone HU75 (antibody, V domains shown, IgG) VH: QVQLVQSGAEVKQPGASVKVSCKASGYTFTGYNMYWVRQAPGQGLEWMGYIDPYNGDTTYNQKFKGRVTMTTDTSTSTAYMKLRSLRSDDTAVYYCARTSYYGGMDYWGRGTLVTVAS VL: DIVMTQTPLSGPVTLGQPASISCRSSQSLVHSNGNTYLHWLQQRPGQPPRLLIYKVSNRFSGVPDRFSGSGAGTDFTLKISRVEAEDVGVYYCSQSTHVPRTFGRGTKLEIKR", "Kd [nM]": 0.4}
{"binder": "humanized IgG antibody derived from clone HH69 (antibody, V domains shown, IgG) VH: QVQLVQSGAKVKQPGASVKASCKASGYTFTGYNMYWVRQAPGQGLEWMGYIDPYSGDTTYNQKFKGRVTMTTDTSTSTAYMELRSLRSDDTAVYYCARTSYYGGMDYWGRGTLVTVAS VL: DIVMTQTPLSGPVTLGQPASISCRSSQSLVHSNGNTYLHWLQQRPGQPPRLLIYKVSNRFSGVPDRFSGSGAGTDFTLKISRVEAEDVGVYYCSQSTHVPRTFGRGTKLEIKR", "Kd [nM]": 0.33}
{"binder": "Ig-1A, humanized IgG reformatted from scFv 1A (antibody, V domains shown, IgG made in mammalian cells; also called humanized Ig-1A) VH: QVQLVQSGAEVKQPGASVKVSCKASGYTFTGYNMYWVRQAPGQGLEWMGYIDPYNGDTTYNQKFKGRVTMTTDTSTSTAYMELRSLRSDDTAVYYCARTSYYGGMDYWGRGTLVTVAS VL: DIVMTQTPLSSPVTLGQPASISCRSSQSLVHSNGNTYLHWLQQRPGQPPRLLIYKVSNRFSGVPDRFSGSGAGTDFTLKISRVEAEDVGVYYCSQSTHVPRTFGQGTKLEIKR", "Kd [nM]": 1.8}
